# Test system: Pseudomonas aeruginosa ATCC 27853
# assay_summary: Antibacterial MIC, INT microdilution
# Format: cell-based
# condition_info: ATCC27853, read-out: MIC Pa
The reader will find reported MIC values listed item by item below.

INSERT INTO assay_data (compound, data_value) VALUES
  ('COC(=O)c1cc(O)c(O)c(O)c1 [Compound 6, methyl gallate]', '> 100 µg/mL');

Reported MIC of C[C@@H]1CC[C@@]2(C)C(C(=O)O)=CCC[C@@H]2[C@@]1(C)CC(=O)O : > 100 µg/mL

Reported MIC of O=C(CCCCCCCCCCCCCCCCCCCCCCCCC(=O)OC[C@@H](O)CO)OC[C@@H](O)CO : > 100 µg/mL

Reported MIC of CNC(C)C1CCC(N)C(OC2C(N)CC(N)C(OC3OCC(C)(O)C(NC)C3O)C2O)O1 (stereo not shown) [Gentamicin, reference compound] : 0.25 µg/mL

----------
# Tested on: Pseudomonas aeruginosa ATCC 27853
# assay_summary: Antibacterial MIC, INT microdilution
# Format: cell-based
# condition_info: ATCC27853, read-out: MIC Pa
observable: MIC (µg/mL)
Just the number in µg/mL, nothing appended.

INSERT INTO results (compound, observable, result_units, data_value) VALUES
  ('COc1c(O)c(O)cc2c1COc1c-2oc2cc(O)cc(O)c2c1=O [Compound 7, entadanin]', 'MIC', 'µg/mL', 25);

Now for a further compound.
Reported MIC of C[C@@H]1O[C@@H](Oc2c(-c3ccc(O)c(O)c3)oc3cc(O)cc(O)c3c2=O)[C@H](O)[C@H](O)[C@H]1O [Compound 2, quercetin-3-O-α-L-rhamnoside] : 50

----------
# assay_summary: MTT cytotoxicity assay, normal cells
# Assay type: cell-based
# condition_info: monkey
observable: CC50 (µg/mL)
Just the number in µg/mL, nothing appended.

Example results:
INSERT INTO measurements (compound, data_value) VALUES
  ('C[C@@H]1CC[C@@]2(C)C(C(=O)O)=CCC[C@@H]2[C@@]1(C)CC(=O)O', 41.9),
  ('COc1c(O)c(O)cc2c1COc1c-2oc2cc(O)cc(O)c2c1=O', 55.6),
  ('C[C@H]1[C@H](C)CC[C@]2(C(=O)O)CC[C@]3(C)C(=CC[C@@H]4[C@@]5(C)CC[C@H](O)C(C)(C)[C@@H]5CC[C@]43C)[C@H]12', 22.4),
  ('COC(=O)c1cc(O)c(O)c(O)c1 [Compound 6, methyl gallate]', 30.6),
  ('COC(=O)/C=C(/C)CC[C@]1(C)[C@H]2CCC=C(C(=O)O)[C@]2(C)CC[C@@H]1C', 47.5);

Now for a further compound.
Reported CC50 of O=C(CCCCCCCCCCCCCCCCCCCCCCCCC(=O)OC[C@@H](O)CO)OC[C@@H](O)CO : 80.5

----------
# System: THP-1 cells
# assay_summary: MTT cytotoxicity assay, cancer cells
# Type: cell-based
# condition_info: Homo sapiens, THP-1, read-out: THP-1 LC50
observable: CC50 (µg/mL)
Just the number in µg/mL, nothing appended.

INSERT INTO measurements (compound, observable, result_units, data_value) VALUES
  ('COC(=O)c1cc(O)c(O)c(O)c1 [Compound 6, methyl gallate]', 'CC50', 'µg/mL', 75),
  ('O=C(CCCCCCCCCCCCCCCCCCCCCCCCC(=O)OC[C@@H](O)CO)OC[C@@H](O)CO [Compound 8]', 'CC50', 'µg/mL', 65);

Reported CC50 of C[C@@H]1CC[C@@]2(C)C(C(=O)O)=CCC[C@@H]2[C@@]1(C)CC(=O)O [Compound 5] : 21.8

Reported CC50 of COc1c(O)c(O)cc2c1COc1c-2oc2cc(O)cc(O)c2c1=O [Compound 7, entadanin] : 84.3

Reported CC50 of C[C@H]1[C@H](C)CC[C@]2(C(=O)O)CC[C@]3(C)C(=CC[C@@H]4[C@@]5(C)CC[C@H](O)C(C)(C)[C@@H]5CC[C@]43C)[C@H]12 [Compound 1, ursolic acid] : 9.62
